Origin of measurements: patent US20100168179A1

Test system: MCF-7
Experiment: growth inhibition of human MCF-7 breast carcinoma cell line, crystal-violet assay
Format: cell-based
Details: Table 2, 13,14-α-epoxide formed from the 13-Z-configured double bond
pIC50: −log10 of the molar value.
PROPERTY_LABEL: pIC50

COMPOUND	TARGET_OR_SYSTEM	VALUE_REPORTED
C#CCC[C@H]1C(=O)C(C)(C)[C@@H](O)CC(=O)O[C@H](/C(C)=C/c2ccccn2)C[C@@H]2O[C@]2(C)CCC[C@H](C)[C@@H]1O	MCF-7	8.89
C=CC[C@H]1C(=O)C(C)(C)[C@@H](O)CC(=O)O[C@H](/C(C)=C/c2csc(C)n2)C[C@@H]2O[C@]2(C)CCC[C@H](C)[C@@H]1O [Example 10A]	MCF-7	8.92
C#CC[C@H]1C(=O)C(C)(C)[C@@H](O)CC(=O)O[C@H](/C(F)=C/c2csc(C)n2)C[C@@H]2O[C@]2(C)CCC[C@H](C)[C@@H]1O	MCF-7	8.64
C=CCC[C@H]1C(=O)C(C)(C)[C@@H](O)CC(=O)O[C@H](/C(C)=C/c2ccccn2)C[C@@H]2O[C@]2(C)CCC[C@H](C)[C@@H]1O	MCF-7	8.51

----------
Selectivity = IC50-(NCl/ADR): IC50 (MCF-7) listing for selected compounds.
Tested on: NCl/ADR
Experiment: growth inhibition of multi-drug-resistant NCl/ADR carcinoma cell line, crystal-violet assay
Format: cell-based, human
Details: Table 1, ratio NCl/ADR to MCF-7
PROPERTY_LABEL: Selectivity = IC50-(NCl/ADR): IC50 (MCF-7)

COMPOUND	TARGET_OR_SYSTEM	VALUE_MODIFIER	VALUE_REPORTED
C#CC[C@H]1C(=O)C(C)(C)[C@@H](O)CC(=O)O[C@H](/C(F)=C/c2csc(C)n2)C/C=C(/C)CCC[C@H](C)[C@@H]1O [Example 23]	NCl/ADR	=	5.6
CC(=O)O[C@H]1C(=O)[C@@]2(C)[C@H]([C@H](OC(=O)c3ccccc3)[C@]3(O)C[C@H](OC(=O)[C@H](O)[C@@H](NC(=O)c4ccccc4)c4ccccc4)C(C)=C1C3(C)C)[C@]1(OC(C)=O)CO[C@@H]1C[C@@H]2O [Taxol, reference compound]	NCl/ADR	>	28.6
C#CC[C@H]1C(=O)C(C)(C)[C@@H](O)CC(=O)O[C@H](/C(F)=C/c2coc(C)n2)C/C=C(/C)CCC[C@H](C)[C@@H]1O [Example 27]	NCl/ADR	=	1.6
C#CCC[C@H]1C(=O)C(C)(C)[C@@H](O)CC(=O)O[C@H](/C(C)=C/c2ccccn2)C/C=C(/C)CCC[C@H](C)[C@@H]1O [Example 1]	NCl/ADR	=	2.5
C=CC[C@H]1C(=O)C(C)(C)[C@@H](O)CC(=O)O[C@H](/C(C)=C/c2csc(C)n2)C/C=C(/C)CCC[C@H](C)[C@@H]1O [Example 9]	NCl/ADR	=	2.4
C=CCC[C@H]1C(=O)C(C)(C)[C@@H](O)CC(=O)O[C@H](/C(C)=C/c2ccccn2)C/C=C(/C)CCC[C@H](C)[C@@H]1O [Example 2]	NCl/ADR	=	2.8

----------
Tested on: NCl/ADR
Test: growth inhibition of multi-drug-resistant NCl/ADR carcinoma cell line, crystal-violet assay
Assay type: cell-based, human
Conditions: Table 2, ratio NCl/ADR to MCF-7
PROPERTY_LABEL: Selectivity = IC50-(NCl/ADR): IC50-(MCF-7)

MOLECULE	VALUE_MODIFIER	VALUE_REPORTED
C#CC[C@H]1C(=O)C(C)(C)[C@@H](O)CC(=O)O[C@H](/C(F)=C/c2csc(C)n2)C[C@@H]2O[C@]2(C)CCC[C@H](C)[C@@H]1O [Example 25]	=	4.8
C#CCC[C@H]1C(=O)C(C)(C)[C@@H](O)CC(=O)O[C@H](/C(C)=C/c2ccccn2)C[C@@H]2O[C@]2(C)CCC[C@H](C)[C@@H]1O [Example 4A]	=	7.0
C=CC[C@H]1C(=O)C(C)(C)[C@@H](O)CC(=O)O[C@H](/C(C)=C/c2csc(C)n2)C[C@@H]2O[C@]2(C)CCC[C@H](C)[C@@H]1O [Example 10A]	=	3.0
C=CCC[C@H]1C(=O)C(C)(C)[C@@H](O)CC(=O)O[C@H](/C(C)=C/c2ccccn2)C[C@@H]2O[C@]2(C)CCC[C@H](C)[C@@H]1O [Example 5A]	=	1.2
CC(=O)O[C@H]1C(=O)[C@@]2(C)[C@H]([C@H](OC(=O)c3ccccc3)[C@]3(O)C[C@H](OC(=O)[C@H](O)[C@@H](NC(=O)c4ccccc4)c4ccccc4)C(C)=C1C3(C)C)[C@]1(OC(C)=O)CO[C@@H]1C[C@@H]2O [Taxol, reference compound]	>	29
